system: T1, purified mTfR1 mutant M3 (NGA) (mouse, UniProt Q62351 89-763)
T1 construct: also called S255A
T1 sequence (Q62351 other isoform, or with tags, fused parts or gaps mutant): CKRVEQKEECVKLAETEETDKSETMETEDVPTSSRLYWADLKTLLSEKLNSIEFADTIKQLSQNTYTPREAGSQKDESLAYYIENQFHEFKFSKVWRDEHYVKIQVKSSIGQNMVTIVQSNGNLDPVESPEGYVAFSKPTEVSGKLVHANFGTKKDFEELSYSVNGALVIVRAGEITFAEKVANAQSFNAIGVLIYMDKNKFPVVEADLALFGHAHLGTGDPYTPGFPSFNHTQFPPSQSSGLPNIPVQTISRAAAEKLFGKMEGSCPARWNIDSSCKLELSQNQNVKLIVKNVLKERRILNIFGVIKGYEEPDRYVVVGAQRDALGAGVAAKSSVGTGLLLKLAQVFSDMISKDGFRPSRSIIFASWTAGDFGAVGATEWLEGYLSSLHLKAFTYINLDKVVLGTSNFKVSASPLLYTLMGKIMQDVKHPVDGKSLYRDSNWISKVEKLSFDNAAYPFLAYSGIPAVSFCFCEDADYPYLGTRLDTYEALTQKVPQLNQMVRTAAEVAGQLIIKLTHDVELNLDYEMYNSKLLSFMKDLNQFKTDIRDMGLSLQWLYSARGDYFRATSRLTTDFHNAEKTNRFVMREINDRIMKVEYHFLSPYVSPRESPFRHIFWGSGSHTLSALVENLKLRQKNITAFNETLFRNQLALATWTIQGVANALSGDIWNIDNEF
experimental protocol: ELISA, coated purified mTfR-1
measured parameter: pEC50
Keep in mind that pEC50 stands for -log10 of concentration in molar terms.

In the examples that follow, each entry is paired with its recorded pEC50.
- binder: "Clone H variant 1 VNAR-hFc (Fc fusion, not shown: a dimerising Fc or GST, also called clone H var) ARVDQTPQTITKETGESLTINCVLRDSNCELSSTYWYRKKSGSTNEESISKGGRYVETVNSGSKSFSLRINDLVVEDSGTYRCNVVQWPSSSNGRYWCDVYGGGTAVTVNA"
  pEC50: 9.00
- binder: "8D3 antibody (anti-mouse TfR-1 control; 8D3-hFc formatted antibody) (antibody, V domains shown) VH: EVQLVESGGGLVQPGNSLTLSCVASGFTFSNYGMHWIRQAPKKGLEWIAMIYYDSSKMNYADTVKGRFTISRDNSKNTLYLEMNSLRSEDTAMYYCAVPTSHYVVDVWGQGVSVTVSS VL: DIQMTQSPASLSASLEEIVTITCQASQDIGNWLAWYQQKPGKSPQLLIYGATSLADGVPSRFSGSRSGTQFSLKISRVQVEDIGIYYCLQAYNTPWTFGGGTKLELK"
  pEC50: 9.29
- binder: "Clone H variant 10 VNAR-hFc (Fc fusion, not shown: a dimerising Fc or GST, also called clone H var; 10) ARVDQTPQTITKETGESLTINCVLRDSNCELSSTYWYRKKSGSTNEESISKGGRYVETVNSGSKSFSLRINDLVVEDSGTYRCNVQQFPSWFNGRYWCDVYGGGTAVTVNA"
  pEC50: 8.40

Then this binder:
Please fill in: pEC50 reported for Clone H VNAR-hFc fusion (Fc fusion, not shown: a dimerising Fc or GST, bivalent VNAR-Fc) ARVDQTPQTITKETGESLTINCVLRDSNCELSSTYWYRKKSGSTNEESISKGGRYVETVNSGSKSFSLRINDLVVEDSGTYRCNVQQFPSSSNGRYWCDVYGGGTAVTVNA = 8.18
